- PROTOCOL: recombinant barcode read abundance after kanamycin selection (control-corrected) (log10(CPM+1)); higher = more efficient recombination; sequences stand for … in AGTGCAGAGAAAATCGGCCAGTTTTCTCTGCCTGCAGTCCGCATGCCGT…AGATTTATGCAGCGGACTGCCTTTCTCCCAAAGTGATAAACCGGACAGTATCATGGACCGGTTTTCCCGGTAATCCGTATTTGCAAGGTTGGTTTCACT; site = the 11-nt target;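 note: IS621 recombinase and bridge RNA in Escherichia coli cells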
OUTCOME MEASURE: recombinant barcode read abundance (log10)

SEQUENCE	OBS VALUE
CCGGTGACTTGGGTTCTAACCTGTTGCCT (site GCGGTGACTAG)	0.146
CTTGGGCCTTGGGTTCTAACCTGTTGCCT (site CCTGGGCCTAG)	0.16
CGCCTCGCTTGGGTTCTAACCTGTTGCCT (site CGCCTCTCTAG)	0.259
AGCCGAACTTGGGTTCTAACCTGTTGCCT (site CGCCGAACTAG)	0.11
AAGCCTACTTGGGTTCTAACCTGTTGCTA (site AAGCCTACTTA)	1.27
TAGGCTACTTGGGTTCTAACCTGTTGCAG (site TAGGCTACTTT)	0.216
TAGAAGGCTTGGGTTCTAACCTGTTGCTA (site TAGAAGCCTTA)	0.0194
ACCTACCCTTGGGTTCTAACCTGTTGCGT (site ACATATCCTAC)	0.0563
CGCCGTCCTTGGGTTCTAACCTGTTGCAT (site CGCCATCCTAT)	0.0426
CCTTTACCTTGGGTTCTAACCTGTTGCCT (site ACTTTACCTAG)	0.136
CGTTGTCCTTGGGTTCTAACCTGTTGCAA (site CCTTGTCCTCT)	0.00991
ACCAGGTCTTGGGTTCTAACCTGTTGCCT (site AACAGGTCTAG)	0.15
ACCGGTCCTTGGGTTCTAACCTGTTGCGT (site ATCGTTCCTAC)	0.0193
GATACAGCTTGGGTTCTAACCTGTTGCCT (site GAAACAGCTAG)	0.0665
CATGAGACTTGGGTTCTAACCTGTTGCGG (site GCGATCCCTAA)	0.0802
CGCTGACCTTGGGTTCTAACCTGTTGCTT (site CGCTGACCTAA)	0.0663
GTAACCTCTTGGGTTCTAACCTGTTGCTC (site GTAACCTCTGA)	2.05
GCAAGGACTTGGGTTCTAACCTGTTGCAG (site GCACGGACTCT)	0.165
CGCCTAGCTTGGGTTCTAACCTGTTGCCT (site CTCCTACCTAG)	0.0925
GTATGATCTTGGGTTCTAACCTGTTGCCT (site GTATGAACTAG)	0.026
CCTAAACCTTGGGTTCTAACCTGTTGCGT (site CCTAAACCTAC)	1.63
TTGACGACTTGGGTTCTAACCTGTTGCCA (site TTGCCGACTTG)	0.217
TAGTGTGCTTGGGTTCTAACCTGTTGCCT (site TAGTGTTCTAG)	0.0139
ACAGCCTCTTGGGTTCTAACCTGTTGCCT (site ACAGGCTCTAG)	0.156
ATCTGGGCTTGGGTTCTAACCTGTTGCCT (site AACTGGGCTAG)	0.339
TCGGTTCCTTGGGTTCTAACCTGTTGCCT (site TCGGTTCCTAG)	0.811
GGTAGGCCTTGGGTTCTAACCTGTTGCTT (site GGTAGGCCTAA)	0.0588
CTTCACCCTTGGGTTCTAACCTGTTGCCT (site CTTCACCCTAG)	1.76
CGTGAACCTTGGGTTCTAACCTGTTGCGT (site CGTCAACCTAC)	0.34
AGGCGCCCTTGGGTTCTAACCTGTTGCAG (site AGGCGCCCTGT)	0.0789
CTACATCCTTGGGTTCTAACCTGTTGCTT (site CTACAACCTAA)	0.00817
GCCCTATCTTGGGTTCTAACCTGTTGCCT (site GCCCTATCTAG)	1.35
TATTCTCCTTGGGTTCTAACCTGTTGCGT (site TATTCTCCTAA)	0.0153
CAGCGTGCTTGGGTTCTAACCTGTTGCCT (site CGGCGTGCTAG)	0.216
TCGGCTCCTTGGGTTCTAACCTGTTGCCT (site TTGGCGCCTAG)	0.149
CAGCACTCTTGGGTTCTAACCTGTTGCTA (site CAGCACTCTTA)	2.12
TAGGGCCCTTGGGTTCTAACCTGTTGCCT (site GAGGGCCCTAG)	0.0503
GGACCTCCTTGGGTTCTAACCTGTTGCCT (site GGACCTCCTAT)	0.524
AATTTCTCTTGGGTTCTAACCTGTTGCCT (site AATTTCTCTAG)	0.0321
AACTGATCTTGGGTTCTAACCTGTTGCCT (site AACTCATCTAG)	0.0693
AGTCATACTTGGGTTCTAACCTGTTGCTT (site AGTCGGACTAA)	0.0739
GAGACAGCTTGGGTTCTAACCTGTTGCCT (site GACACAGCTAG)	0.0512
